System: ChaGo-K-1
testProtocol: relative viability (nuclei count vs DMSO), 5 days (fraction); higher = more cells survive
assaySetup: first compound 0.005 µM
We begin with a simple list: items and their reported relative viability.
propertyMeasured: relative viability

{"columns": ["compound", "propertyMeasured", "numericValue"],
 "data": [
  ["COc1cc2nccc(Oc3ccc(NC(=O)Nc4cc(C)on4)c(Cl)c3)c2cc1OC [Tivozanib] + Nc1nc2[nH]cc(CCc3ccc(C(=O)N[C@@H](CCC(=O)O)C(=O)O)cc3)c2c(=O)[nH]1 [Pemetrexed] (partner 0.2 µM)", "relative viability", 0.235],
  ["COc1cc2nccc(Oc3ccc(NC(=O)Nc4cc(C)on4)c(Cl)c3)c2cc1OC [Tivozanib] + CC(=O)c1c(C)c2cnc(Nc3ccc(N4CCNCC4)cn3)nc2n(C2CCCC2)c1=O [Palbociclib] (partner 0.5 µM)", "relative viability", 0.879],
  ["Nc1ccn([C@@H]2O[C@H](CO)[C@@H](O)[C@@H]2O)c(=O)n1 [Cytarabine] + CC1(C)CCC(c2ccc(Cl)cc2)=C(CN2CCN(c3ccc(C(=O)NS(=O)(=O)c4ccc(N[C@H](CCN5CCOCC5)CSc5ccccc5)c(S(=O)(=O)C(F)(F)F)c4)cc3)CC2)C1 [Navitoclax] (partner 0.5 µM)", "relative viability", 0.74],
  ["COc1cc2nccc(Oc3ccc(NC(=O)Nc4cc(C)on4)c(Cl)c3)c2cc1OC [Tivozanib] + CS(=O)(=O)N1CCN(Cc2cc3nc(-c4cccc5[nH]ncc45)nc(N4CCOCC4)c3s2)CC1 [Pictilisib] (partner 1 µM)", "relative viability", 0.591],
  ["Nc1ccn([C@@H]2O[C@H](CO)[C@@H](O)[C@@H]2O)c(=O)n1 [Cytarabine] + CC(=O)Nc1cccc(-n2c(=O)n(C3CC3)c(=O)c3c(Nc4ccc(I)cc4F)n(C)c(=O)c(C)c32)c1 [Trametinib] (partner 0.02 µM)", "relative viability", 0.688]
]}

====

Test system: NCI-H1355
testProtocol: relative viability (nuclei count vs DMSO), 5 days (fraction); higher = more cells survive
assaySetup: first compound 0.5 µM
propertyMeasured: relative viability

{"columns": ["molecule", "propertyMeasured", "numericValue"],
 "data": [
  ["Nc1ccn([C@@H]2O[C@H](CO)[C@@H](O)[C@@H]2O)c(=O)n1 [Cytarabine] + Cc1cc(Nc2cc(N3CCN(C)CC3)nc(Sc3ccc(NC(=O)C4CC4)cc3)n2)n[nH]1 [Tozasertib] (partner 0.1 µM)", "relative viability", 0.314],
  ["COc1cc2nccc(Oc3ccc(NC(=O)Nc4cc(C)on4)c(Cl)c3)c2cc1OC [Tivozanib] + O=C(CCCCCCC(=O)Nc1ccccc1)NO [Vorinostat] (partner 1 µM)", "relative viability", 0.588],
  ["Nc1ccn([C@@H]2O[C@H](CO)[C@@H](O)[C@@H]2O)c(=O)n1 [Cytarabine] + Nc1nc2[nH]cc(CCc3ccc(C(=O)N[C@@H](CCC(=O)O)C(=O)O)cc3)c2c(=O)[nH]1 [Pemetrexed] (partner 0.2 µM)", "relative viability", 0.324],
  ["COc1cc2nccc(Oc3ccc(NC(=O)Nc4cc(C)on4)c(Cl)c3)c2cc1OC [Tivozanib] + CC(C)C[C@H](NC(=O)[C@H](Cc1ccccc1)NC(=O)c1cnccn1)B(O)O [Bortezomib] (partner 0.002 µM)", "relative viability", 1.14]
]}

====

Test system: NCI-H23
testProtocol: relative viability (nuclei count vs DMSO), 5 days (fraction); higher = more cells survive
assaySetup: first compound 0.8 µM
Parameter: relative viability. Scope: all listed entries.
propertyMeasured: relative viability

{"columns": ["compound", "testedSystem", "propertyMeasured", "numericValue"],
 "data": [
  ["Cc1cnc(-c2cnc(NCCNc3ccc(C#N)cn3)nc2-c2ccc(Cl)cc2Cl)[nH]1 + Nc1nc2[nH]cc(CCc3ccc(C(=O)N[C@@H](CCC(=O)O)C(=O)O)cc3)c2c(=O)[nH]1 [Pemetrexed] (partner 0.2 µM)", "NCI-H23", "relative viability", 0.486],
  ["O=c1[nH]c2ccccc2n1C1CCN(CCCC(c2ccc(F)cc2)c2ccc(F)cc2)CC1 [Pimozide] + O=C(CCCCCCC(=O)Nc1ccccc1)NO [Vorinostat] (partner 1 µM)", "NCI-H23", "relative viability", 0.49],
  ["O=c1[nH]c2ccccc2n1C1CCN(CCCC(c2ccc(F)cc2)c2ccc(F)cc2)CC1 [Pimozide] + C[C@]1(O)C[C@@H](c2nc(-c3ccc4ccc(-c5ccccc5)nc4c3)c3c(N)nccn32)C1 [Linsitinib] (partner 1 µM)", "NCI-H23", "relative viability", 0.49]
]}

====

Test system: NCI-H1993
testProtocol: relative viability (nuclei count vs DMSO), 5 days (fraction); higher = more cells survive
assaySetup: first compound 8 µM
Quick list: relative viability per entry.

{"columns": ["molecule", "relative viability"],
 "data": [
  ["O=c1[nH]c2ccccc2n1C1CCN(CCCC(c2ccc(F)cc2)c2ccc(F)cc2)CC1 [Pimozide] + CS(=O)(=O)N1CCN(Cc2cc3nc(-c4cccc5[nH]ncc45)nc(N4CCOCC4)c3s2)CC1 [Pictilisib] (partner 1 µM)", 0.846],
  ["O=c1[nH]c2ccccc2n1C1CCN(CCCC(c2ccc(F)cc2)c2ccc(F)cc2)CC1 [Pimozide] + O=C(CCCCCCC(=O)Nc1ccccc1)NO [Vorinostat] (partner 1 µM)", 0.533],
  ["O=c1[nH]c2ccccc2n1C1CCN(CCCC(c2ccc(F)cc2)c2ccc(F)cc2)CC1 [Pimozide] + CC1(C)CCC(c2ccc(Cl)cc2)=C(CN2CCN(c3ccc(C(=O)NS(=O)(=O)c4ccc(N[C@H](CCN5CCOCC5)CSc5ccccc5)c(S(=O)(=O)C(F)(F)F)c4)cc3)CC2)C1 [Navitoclax] (partner 0.5 µM)", 0.806],
  ["O=c1[nH]c2ccccc2n1C1CCN(CCCC(c2ccc(F)cc2)c2ccc(F)cc2)CC1 [Pimozide] + COc1cc2c(Oc3ccc(NC(=O)C4(C(=O)Nc5ccc(F)cc5)CC4)cc3F)ccnc2cc1OCCCN1CCOCC1 [Foretinib] (partner 0.25 µM)", 0.851],
  ["O=c1[nH]c2ccccc2n1C1CCN(CCCC(c2ccc(F)cc2)c2ccc(F)cc2)CC1 [Pimozide] + Nc1ncn([C@H]2C[C@H](O)[C@@H](CO)O2)c(=O)n1 [Decitabine] (partner 2 µM)", 0.642],
  ["O=c1[nH]c2ccccc2n1C1CCN(CCCC(c2ccc(F)cc2)c2ccc(F)cc2)CC1 [Pimozide] + C[C@@H](Oc1cc(-c2cnn(C3CCNCC3)c2)cnc1N)c1c(Cl)ccc(F)c1Cl [Crizotinib] (partner 1 µM)", 0.898],
  ["O=c1[nH]c2ccccc2n1C1CCN(CCCC(c2ccc(F)cc2)c2ccc(F)cc2)CC1 [Pimozide] + CCNC(=O)c1noc(-c2cc(C(C)C)c(O)cc2O)c1-c1ccc(CN2CCOCC2)cc1 [Luminespib] (partner 0.01 µM)", 0.425]
]}

====

# relative viability listing for each entry below
Test system: BEN
testProtocol: relative viability (nuclei count vs DMSO), 5 days (fraction); higher = more cells survive
assaySetup: first compound 0.4 µM
propertyMeasured: relative viability

{"columns": ["compound", "propertyMeasured", "numericValue"],
 "data": [
  ["Cc1sc2c(c1C)C(c1ccc(Cl)cc1)=N[C@@H](CC(=O)OC(C)(C)C)c1nnc(C)n1-2 [JQ1] + O=C(CCCCCCC(=O)Nc1ccccc1)NO [Vorinostat] (partner 1 µM)", "relative viability", 0.494],
  ["Cc1sc2c(c1C)C(c1ccc(Cl)cc1)=N[C@@H](CC(=O)OC(C)(C)C)c1nnc(C)n1-2 [JQ1] + Cc1cc(Nc2cc(N3CCN(C)CC3)nc(Sc3ccc(NC(=O)C4CC4)cc3)n2)n[nH]1 [Tozasertib] (partner 0.1 µM)", "relative viability", 0.5],
  ["Cc1sc2c(c1C)C(c1ccc(Cl)cc1)=N[C@@H](CC(=O)OC(C)(C)C)c1nnc(C)n1-2 [JQ1] + Nc1ncn([C@H]2C[C@H](O)[C@@H](CO)O2)c(=O)n1 [Decitabine] (partner 2 µM)", "relative viability", 0.63]
]}

====

System: HCC-366
testProtocol: relative viability (nuclei count vs DMSO), 5 days (fraction); higher = more cells survive
assaySetup: first compound 0.253 µM
In this section, each of the compounds is paired with its reported relative viability.
propertyMeasured: relative viability

{"columns": ["compound", "numericValue"],
 "data": [
  ["Cc1cnc(-c2cnc(NCCNc3ccc(C#N)cn3)nc2-c2ccc(Cl)cc2Cl)[nH]1 + Nc1nc2[nH]cc(CCc3ccc(C(=O)N[C@@H](CCC(=O)O)C(=O)O)cc3)c2c(=O)[nH]1 [Pemetrexed] (partner 0.2 µM)", 0.137],
  ["Cc1cnc(-c2cnc(NCCNc3ccc(C#N)cn3)nc2-c2ccc(Cl)cc2Cl)[nH]1 + CC(C)C[C@H](NC(=O)[C@H](Cc1ccccc1)NC(=O)c1cnccn1)B(O)O [Bortezomib] (partner 0.002 µM)", 0.989],
  ["Cc1cnc(-c2cnc(NCCNc3ccc(C#N)cn3)nc2-c2ccc(Cl)cc2Cl)[nH]1 + CS(=O)(=O)N1CCN(Cc2cc3nc(-c4cccc5[nH]ncc45)nc(N4CCOCC4)c3s2)CC1 [Pictilisib] (partner 1 µM)", 0.128]
]}
